Measured IC50, listed per entry for reference.
target: CCXCKR2 receptor (Homo sapiens); construct: host or cells: MCF-7 (endogenous) and/or MDA-MB-435S transfected with hRDC1 in pcDNA3.1(+); test: Displacement of 125I-labeled SDF-1 from the CCXCKR2 receptor (radioligand binding, determination of IC50 values); settings: MCF-7 and/or MDA-MB-435S cells expressing CCXCKR2; 125I SDF-1; 3 hr at 4° C.; read-out: Activity (ability to displace 125I SDF-1 from CCXCKR2)
Sequence (P25106 whole entry): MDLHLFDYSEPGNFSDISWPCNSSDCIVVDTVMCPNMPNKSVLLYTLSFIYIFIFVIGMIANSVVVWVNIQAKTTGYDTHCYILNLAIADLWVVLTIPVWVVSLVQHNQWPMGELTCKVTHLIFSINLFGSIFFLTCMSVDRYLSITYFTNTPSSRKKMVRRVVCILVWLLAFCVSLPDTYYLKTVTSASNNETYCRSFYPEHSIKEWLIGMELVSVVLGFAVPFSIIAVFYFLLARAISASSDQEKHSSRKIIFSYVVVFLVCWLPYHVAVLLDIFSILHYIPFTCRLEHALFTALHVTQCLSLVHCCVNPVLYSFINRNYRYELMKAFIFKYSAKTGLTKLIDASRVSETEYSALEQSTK

A selection of reference data follows.
Prompt: Fill in IC50 for record COc1cc(C(=O)N(CCC2CCCN2C)Cc2csc3ccccc23)cc(OC)c1OC (stereo not shown)
Response: < 2000 nM

Prompt: Fill in IC50 for record `COc1cc(C(=O)N(Cc2csc(-c3ccccc3)n2)C[C@@H]2CCCN2)cc2c1OC(C)(C)O2`
Response: < 500 nM

Prompt: Fill in IC50 for record `COc1ccc(C(=O)N(Cc2cc3ccccc3s2)C[C@@H]2CCCN2CC2CCCCC2)cc1OC`
Response: < 500 nM

Next:
Prompt: Fill in IC50 for record COc1cc(C(=O)N(CCC2CCCN2C)Cc2cc3ccccc3o2)cc(OC)c1OC (stereo not shown)
Response: < 500 nM

Prompt: Fill in IC50 for record `COc1ccc(C(=O)N(Cc2cc3ccccc3s2)C[C@@H]2CCCN2)cc1OC`
Response: < 2000 nM

Prompt: Fill in IC50 for record `COc1cc(C(=O)N(Cc2cc3ccccc3o2)C[C@@H]2CCCN2CC2CCCCC2)cc(OC)c1OC`
Response: < 500 nM

Prompt: Fill in IC50 for record `COc1ccc(C(=O)N(C[C@@H]2CCCN2CC2CCCCC2)c2cccc(-n3ccnn3)c2)cc1OC`
Response: < 10000 nM

Prompt: Fill in IC50 for record COc1cc(C(=O)N(CCC2CCCN2C)Cc2ccc3ccccc3c2)cc(OC)c1OC (stereo not shown)
Response: < 500 nM

Prompt: Fill in IC50 for record `COc1cc(C(=O)N(Cc2ccc3ccccc3c2)C[C@@H]2CCCN2C2CCC2)cc2c1OC(C)(C)O2`
Response: < 500 nM

Prompt: Fill in IC50 for record `COc1cc(C(=O)N(Cc2cc3ccccc3o2)C[C@@H]2CCCN2C2CCC2)cc2c1OC(C)(C)O2`
Response: < 500 nM

Prompt: Fill in IC50 for record `COc1cc(C(=O)N(Cc2cc3ccccc3cn2)C[C@@H]2C[C@@H]3CCCC[C@@H]3N2)cc2c1OC(C)(C)O2`
Response: < 500 nM

Prompt: Fill in IC50 for record `COc1cc(C(=O)N(Cc2cc3ccccc3s2)C[C@@H]2CCCN2C2CCC2)cc2c1OC(C)(C)O2`
Response: < 500 nM

Prompt: Fill in IC50 for record COc1cc(C(=O)N(CCC2CCCN2C)Cc2cc3ccccc3n2C)cc(OC)c1OC (stereo not shown)
Response: < 500 nM

Prompt: Fill in IC50 for record `COc1cc(C(=O)N(C[C@@H]2CCCN2CC2CC2)c2cccc(-c3ccccc3)c2)ccc1OC(F)F`
Response: < 500 nM

Prompt: Fill in IC50 for record COc1cc(C(=O)N(CCC2CCCN2C)CC2=C(Cl)c3cc(F)ccc3OC2)cc(OC)c1OC (stereo not shown)
Response: < 500 nM

Prompt: Fill in IC50 for record COc1cc(C(=O)N(C[C@@H]2C[C@@H]3CCCC[C@@H]3N2)C(C)c2ccc3ccccc3n2)cc2c1OC(C)(C)O2 (stereo partly shown)
Response: < 500 nM

Data provenance is patent US7417062B2.
